target: rat TRPA1 (Rattus norvegicus, UniProt Q6RI86); construct: expressed in transfected cells; host or cells: CHO cells (Zeocin selection); assay: 45Calcium uptake assay, inhibition of AITC induced calcium uptake in rat TRPA1 expressing CHO cells; format: cell-based; conditions: 10.0 μM compound, AITC 10 μM, read-out: rat TRPA1 Percentage inhibition at 10.0 μM
Sequence (Q6RI86 whole entry): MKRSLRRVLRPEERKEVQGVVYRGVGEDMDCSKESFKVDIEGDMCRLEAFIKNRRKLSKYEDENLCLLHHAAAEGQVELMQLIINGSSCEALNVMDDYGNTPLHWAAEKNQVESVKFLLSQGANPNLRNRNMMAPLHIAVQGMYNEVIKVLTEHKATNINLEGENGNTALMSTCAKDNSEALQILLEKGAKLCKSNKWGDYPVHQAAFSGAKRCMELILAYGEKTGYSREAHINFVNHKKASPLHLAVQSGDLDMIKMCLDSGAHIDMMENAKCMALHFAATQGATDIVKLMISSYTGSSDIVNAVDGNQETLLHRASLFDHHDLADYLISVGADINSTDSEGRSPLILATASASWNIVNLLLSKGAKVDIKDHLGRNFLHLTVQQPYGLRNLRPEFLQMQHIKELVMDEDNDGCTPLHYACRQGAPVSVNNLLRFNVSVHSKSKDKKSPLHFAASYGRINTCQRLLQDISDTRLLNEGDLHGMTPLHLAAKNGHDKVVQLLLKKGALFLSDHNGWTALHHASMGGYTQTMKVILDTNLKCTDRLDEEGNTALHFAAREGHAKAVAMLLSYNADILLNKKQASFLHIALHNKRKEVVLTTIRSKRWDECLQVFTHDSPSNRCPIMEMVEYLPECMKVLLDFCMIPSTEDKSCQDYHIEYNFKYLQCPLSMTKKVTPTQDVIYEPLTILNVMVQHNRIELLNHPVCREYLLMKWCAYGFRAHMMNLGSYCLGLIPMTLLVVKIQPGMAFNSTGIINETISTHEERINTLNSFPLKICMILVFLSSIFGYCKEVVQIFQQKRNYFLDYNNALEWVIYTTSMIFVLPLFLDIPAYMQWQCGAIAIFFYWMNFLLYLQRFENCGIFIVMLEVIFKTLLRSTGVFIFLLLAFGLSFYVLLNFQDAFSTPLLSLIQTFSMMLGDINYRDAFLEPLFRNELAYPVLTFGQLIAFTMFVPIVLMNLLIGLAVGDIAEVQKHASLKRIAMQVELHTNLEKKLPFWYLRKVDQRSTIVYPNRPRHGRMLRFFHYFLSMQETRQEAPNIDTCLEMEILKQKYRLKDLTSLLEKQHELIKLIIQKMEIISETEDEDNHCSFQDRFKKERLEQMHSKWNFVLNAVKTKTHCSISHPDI
Exercise: for every item that follows, state its recorded inhibition at 10 µM.
Numeric only. Scale: %

In: Record request: inhibition at 10 µM value, item Cn1c(=O)c2c(CC(=O)Nc3nc(-c4ccc(Cl)cc4)cs3)snc2n(C)c1=O
Out: 43.8

In: Would you kindly repeat that for Cn1c(=O)c2c(CC(=O)Nc3nc(-c4ccc(Cl)cc4)cs3)nsc2n(C)c1=O ?
Out: 99.5

In: Would you kindly repeat that for Cn1c(=O)c2c(CC(=O)Nc3nc(-c4ccc(OC(F)(F)F)c(F)c4)cs3)snc2n(C)c1=O ?
Out: 100

In: Would you kindly repeat that for Cn1c(=O)c2c(CC(=O)Nc3nc(-c4ccc(F)c(C(F)(F)F)c4F)cs3)snc2n(C)c1=O ?
Out: 94.1

In: Would you kindly repeat that for Cn1c(=O)c2c(CC(=O)Nc3nc(-c4ccc(Cl)c(Cl)c4)cs3)nsc2n(C)c1=O ?
Out: 100

In: Would you kindly repeat that for Cn1c(=O)c2c(CC(=O)Nc3nc(-c4ccc(C(F)(F)F)cc4F)cs3)nsc2n(C)c1=O ?
Out: 100

In: Would you kindly repeat that for Cn1c(=O)c2c(CC(=O)Nc3nc(-c4cc(F)cc(C(F)(F)F)c4)cs3)nsc2n(C)c1=O ?
Out: 100

In: Would you kindly repeat that for Cn1c(=O)c2c(CC(=O)Nc3nc(-c4ccc(F)c(OC(F)(F)F)c4)cs3)nsc2n(C)c1=O ?
Out: 99.8

In: Would you kindly repeat that for Cn1c(=O)c2c(CC(=O)Nc3nc(-c4ccc(OC(F)(F)F)c(Cl)c4)cs3)nsc2n(C)c1=O ?
Out: 99.3

In: Would you kindly repeat that for Cn1c(=O)c2c(CC(=O)Nc3nc(-c4cc(F)c(C(F)(F)F)c(F)c4)cs3)nsc2n(C)c1=O ?
Out: 100

In: Would you kindly repeat that for Cn1c(=O)c2c(CC(=O)Nc3nc(-c4cccc(C(F)(F)F)c4F)cs3)snc2n(C)c1=O ?
Out: 98.5

In: Would you kindly repeat that for Cn1c(=O)c2c(CC(=O)Nc3nc(-c4ccc(OC(F)(F)F)c(F)c4)cs3)nsc2n(C)c1=O ?
Out: 100

In: Would you kindly repeat that for Cn1c(=O)c2c(CC(=O)Nc3nc(-c4ccc(Cl)c(OC(F)(F)F)c4)cs3)nsc2n(C)c1=O ?
Out: 96.2

In: Would you kindly repeat that for Cn1c(=O)c2c(CC(=O)Nc3nc(-c4ccc(Cl)c(C(F)(F)F)c4)cs3)nsc2n(C)c1=O ?
Out: 100

In: Would you kindly repeat that for Cn1c(=O)c2c(CC(=O)Nc3nc(-c4cccc(C(F)(F)F)c4F)cs3)nsc2n(C)c1=O ?
Out: 100

In: Would you kindly repeat that for Cn1c(=O)c2c(CC(=O)Nc3nc(-c4ccc(C(F)(F)F)c(F)c4F)cs3)nsc2n(C)c1=O ?
Out: 95.8

In: Would you kindly repeat that for Cn1c(=O)c2c(CC(=O)Nc3nc(-c4ccc(C(F)(F)F)c(F)c4)cs3)snc2n(C)c1=O ?
Out: 100

In: Would you kindly repeat that for Cn1c(=O)c2c(CC(=O)Nc3nc(-c4ccc(F)cc4F)cs3)nsc2n(C)c1=O ?
Out: 100

In: Would you kindly repeat that for Cn1c(=O)c2c(CC(=O)Nc3nc(-c4cccc(C(F)(F)F)c4)cs3)snc2n(C)c1=O ?
Out: 100

In: Would you kindly repeat that for Cn1c(=O)c2c(CC(=O)Nc3nc(-c4ccc(F)c(C(F)(F)F)c4)cs3)nsc2n(C)c1=O ?
Out: 100

In: Would you kindly repeat that for Cn1c(=O)c2c(CC(=O)Nc3nc(-c4ccc(F)c(OC(F)(F)F)c4)cs3)snc2n(C)c1=O ?
Out: 98.3

In: Would you kindly repeat that for Cn1c(=O)c2c(CC(=O)Nc3nc(-c4ccc(F)c(F)c4)cs3)nsc2n(C)c1=O ?
Out: 99.6

In: Would you kindly repeat that for Cn1c(=O)c2c(CC(=O)Nc3nc(-c4cc(F)c(C(F)(F)F)c(F)c4)cs3)snc2n(C)c1=O ?
Out: 68.4

In: Would you kindly repeat that for Cn1c(=O)c2c(CC(=O)Nc3ccn(-c4ccc(Br)cc4)n3)snc2n(C)c1=O ?
Out: 39.7

In: Would you kindly repeat that for Cn1c(=O)c2c(CC(=O)Nc3nc(-c4ccc(C(F)(F)F)c(F)c4)cs3)nsc2n(C)c1=O ?
Out: 99.3

In: Would you kindly repeat that for Cn1c(=O)c2c(CC(=O)Nc3nc(-c4cc(Cl)cc(C(F)(F)F)c4)cs3)nsc2n(C)c1=O ?
Out: 100

In: Would you kindly repeat that for Cn1c(=O)c2c(CC(=O)Nc3nc(-c4cccc(C(F)(F)F)c4)cs3)nsc2n(C)c1=O ?
Out: 99.3

In: Would you kindly repeat that for Cn1c(=O)c2c(CC(=O)Nc3nc(-c4ccc(Cl)c(C(F)(F)F)c4)cs3)snc2n(C)c1=O ?
Out: 99.3
